From: paper PMC8445441

- Test system: P. aeruginosa PA14
- protocol.details: microbe, parasite or virus in culture
- Design: unit not given beside the values
- settings: strain PA14; antibiotic alone; unit not given
// MICa: MIC of the antibiotic lookup, one value per entry

The following compounds have reported results that may help.
Qu. # MICa: MIC of the antibiotic lookup, item CO[C@@H]1[C@@H](OC(=O)c2ccc(C)[nH]2)[C@@H](O)[C@H](Oc2ccc3c(O)c(NC(=O)c4ccc(O)c(CC=C(C)C)c4)c(=O)oc3c2Cl)OC1(C)C [Chlorobiocin]
Ans. 1/1

Qu. Input C[C@@H](O)[C@H]1C(=O)N2C(C(=O)O)=C(S[C@@H]3CN[C@H](C(=O)N(C)C)C3)[C@H](C)[C@H]12 [Meropenem]
Ans. 2/2

Now consider the entry below.
Qu. # MICa: MIC of the antibiotic lookup, item CC1(C)S[C@@H]2[C@H](NC(=O)C(C(=O)O)c3ccccc3)C(=O)N2[C@H]1C(=O)O (stereo partly drawn) [Carbenicillin]
Ans. 128/128

====

- Test system: P. aeruginosa AUMC-Pa-4
- protocol.details: microbe, parasite or virus in culture
- settings: strain AUMC-Pa-4; antibiotic + D-11 (MICb/MICbc 128/4)
Positions of bridges follow the written chain, without caps; N, C: chain ends. Non-standard residues stand in square brackets, D forms with d. Residues, ends and D or L forms follow the SMILES beside them. *: point of attachment. X1 = CC[C@H](C)CCCCC(=O)*; Dab = NCC[C@H](N)C(=O)O
readout.label: FICI

The following compounds have reported results that may help.
Qu. # FICI lookup, item "CO[C@H]1/C=C/O[C@@]2(C)Oc3c(C)c(O)c4c(c3C2=O)C2=NC3(CCN(CC(C)C)CC3)NC2=C(NC(=O)/C(C)=C\C=C\[C@H](C)[C@H](O)[C@@H](C)[C@@H](O)[C@@H](C)[C@H](OC(C)=O)[C@@H]1C)C4=O"
Ans. 0.094

Qu. Input "CO[C@H]1/C=C/O[C@@]2(C)Oc3c(C)c(O)c4c(O)c(c5c(nc6cc(C)ccn65)c4c3C2=O)NC(=O)/C(C)=C\C=C\[C@H](C)[C@H](O)[C@@H](C)[C@@H](O)[C@@H](C)[C@H](OC(C)=O)[C@@H]1C"
Ans. 0.281

Now consider the entry below.
Qu. # FICI lookup, item CC[C@H](C)CCCCC(=O)N[C@@H](CCN)C(=O)N[C@H](C(=O)N[C@@H](CCN)C(=O)N[C@H]1CCNC(=O)[C@H]([C@@H](C)O)NC(=O)[C@H](CCN)NC(=O)[C@H](CCN)NC(=O)[C@H](CC(C)C)NC(=O)[C@@H](CC(C)C)NC(=O)[C@H](CCN)NC1=O)[C@@H](C)O [Colistin] (X1-[Dab]T[Dab][Dab][Dab][dL]L[Dab][Dab]T; lactam 4-C (inferred); N-terminus assumed)
Ans. 0.531

====

- Tested on: clinical P. aeruginosa isolates
- protocol.details: microbe, parasite or virus in culture
- settings: Pseudomonas aeruginosa, 18 h, read-out: Antibiotic sensibility (MIC) of clinical P. aeruginosa isolate AUMC-Pa-3, strain AUMC-Pa-3; antibiotic alone
// MIC lookup, one value per entry

The following compounds have reported results that may help.
Qu. # MIC lookup, item "CO[C@@H]1[C@@H](OC(N)=O)[C@@H](O)[C@H](Oc2ccc3c(O)c(NC(=O)c4ccc(O)c(CC=C(C)C)c4)c(=O)oc3c2C)OC1(C)C"
Ans. > 128 µM

Qu. Input "CC1(C)S[C@@H]2[C@H](NC(=O)[C@H](N)c3ccc(O)cc3)C(=O)N2[C@H]1C(=O)O"
Ans. > 128 µM

Now consider the entry below.
Qu. # MIC lookup, item "C[C@@H]1O[C@@H]1P(=O)(O)O"
Ans. > 128 µM
